Tested On: Antibody No. 245.1
Test Details: peptide blocking ELISA on plate-bound VISTA, peptide 20 ug/mL
Parameter: percent reduction in ELISA signal (%)
Give bare numbers, in %.

Hi! Can you tell me percent reduction in ELISA signal for each of these binders?
1. CVVYPSSSQESENIT (synthetic overlapping peptide from human VISTA) [Spiked Peptide 30 (CVVYPSSSQESENIT)]
2. LLDSGLYCCLVVEIR (synthetic overlapping peptide from human VISTA) [Spiked Peptide 22 (LLDSGLYCCLVVEIR)]
3. GEVQTCSERRPIRNL (synthetic overlapping peptide from human VISTA) [Spiked Peptide 10 (GEVQTCSERRPIRNL)]
4. QNVTLTCRLLGPVDK (synthetic overlapping peptide from human VISTA) [Spiked Peptide 4 (QNVTLTCRLLGPVDK)]
5. VQTGKDAPSNCVVYP (synthetic overlapping peptide from human VISTA) [Spiked Peptide 28 (VQTGKDAPSNCVVYP)]
6. VVEIRHHHSEHRVHG (synthetic overlapping peptide from human VISTA) [Spiked Peptide 24 (VVEIRHHHSEHRVHG)]

Completion:
1: 0; 2: 34; 3: 0; 4: 25; 5: 5; 6: 41
